Values compiled from PubChem BioAssay (NCI).

- Test system: MDA-MB-468 breast
- METHOD: NCI-60 one-dose screen, 48 h
- CONDITION: 10 µM unless noted
- Method: Growth inhibition of the MDA-MB-468 human Breast tumor cell line is measured as a screen for anti-cancer activity. Cells are grown in 96 well plates and exposed to the test compound for 48 hours. Compounds are tested at a single concentration, which is 10^-5 M for most compounds. The reported endpoint is percent growth (GI% or GIPRCNT), where numbers from 0 - 100% represent growth inhibition, and numbers from -100% - 0 represent cell death. […]
Compounds without any hit were thinned out: in the full panel of roughly 83,000, 20% have a hit. The source made the active and inactive calls. The calls were made as follows: active = growth percent below 10; inactive = the rest.
Reply using exactly one outcome from true (1) = active, false (0) = inactive

Data request: Lab log entry: Nc1c(C(=O)Nc2cccc(Cl)c2)sc2nc3c(cc12)C(O)CCC3 (stereo unspecified) — outcome as called in the assay?
Data returned: false (0)

Data request: Each compound tested received a call. Report the one for `NC(N)=Nc1ccc(Oc2cccc(NC(N)=Nc3ccc(I)cc3F)c2)cn1` .
Data returned: true (1)

Data request: What is the recorded call for this compound in the test? `C[C@@H]1O[C@@H](O[C@@H]2C[C@H](c3ccc4c(c3O)C(=O)C3=C(C4=O)[C@@]4(O)C(=O)C[C@](C)(O)C[C@@]4(O)C=C3)O[C@H](C)[C@H]2O)C[C@H](O)[C@@H]1O`
Data returned: false (0)

Data request: What is the recorded call for this compound in the test? `O=S(=O)(OCCOS(=O)(=O)c1ccccc1)c1ccccc1`
Data returned: false (0)

Data request: Recorded test outcome, item `COc1ccc2c(c1)C(=O)c1c-2c(=O)n(CCCN(C)C)c2cc(OC)c(OC)cc12`
Data returned: false (0)

Data request: So what was the verdict on `COc1cc(OC)cc(C(=O)Nc2cnc(Nc3ccc(N4CCOCC4)nc3)nc2Oc2ccc(C(F)(F)F)cc2)c1` in this test?
Data returned: false (0)

Data request: I would be grateful if you could indicate the recorded call for `CN(C)c1ccc(/C=C2/C=C(c3ccccc3)OC2=O)cc1` .
Data returned: true (1)

Data request: // return assay outcome for COc1ccc2c(c1)N(CCO)C1=C(C(=O)OC1)C2c1cccc(Br)c1 (stereo unspecified)
Data returned: false (0)

Data request: Returns: the outcome recorded for `Cc1ccc(NC(=O)c2sc3nc4c(cc3c2N)C(=O)CCC4)cc1C` in this assay.
Data returned: false (0)

Data request: Per the assay record, what outcome was assigned to `COc1cccc(-c2nn(C)c3sc(C(=O)NCCN4CCN(c5ccccc5F)CC4)cc23)c1` ?
Data returned: false (0)

Data request: I would be grateful if you could indicate the recorded call for `COc1ccc(-n2c(N)c(-c3nc4ccccc4[nH]3)cc(C#N)c2=O)cc1` .
Data returned: false (0)

Data request: Identify the outcome logged in this assay for the compound shown: `CCN1CCC[C@H]1c1cc(O)c2c(c1OC)C[C@H]1C[C@H]3[C@H](N)C(=O)C(C(N)=O)=C(O)[C@@]3(O)C(=O)C1=C2O`
Data returned: true (1)

Data request: Dear colleague, could you share the recorded outcome for `C/C(=C\c1csc(C)n1)[C@@H]1C[C@@H]2O[C@]2(C)CCC[C@H](C)[C@H](O)[C@@H](C)C(=O)C(C)(C)[C@@H](O)CC(=O)N1` when you have a moment?
Data returned: false (0)

Data request: What is the recorded call for this compound in the test? `COc1cc(-c2c3c(nc4c2c(C)nn4-c2ccccc2)-c2ccccc2C(=O)C3=O)cc(OC)c1OC`
Data returned: false (0)

Data request: Returns: the outcome recorded for `Cn1cc(-c2csc(-c3cn(C)c4ccc(F)cc34)n2)c2cnccc21` in this assay.
Data returned: true (1)

Data request: Hey, what did the test say about `O=C(Nc1nc2ccc(OC(F)(F)F)cc2s1)c1ccc(F)cc1` ?
Data returned: false (0)
